Molecular target: T1, human CD81 mutant A164T (human, UniProt P60033 1-236, limits assumed)
T1 construct: as m30; not shown: C-terminal V5 and 6xHis tags
T1 sequence: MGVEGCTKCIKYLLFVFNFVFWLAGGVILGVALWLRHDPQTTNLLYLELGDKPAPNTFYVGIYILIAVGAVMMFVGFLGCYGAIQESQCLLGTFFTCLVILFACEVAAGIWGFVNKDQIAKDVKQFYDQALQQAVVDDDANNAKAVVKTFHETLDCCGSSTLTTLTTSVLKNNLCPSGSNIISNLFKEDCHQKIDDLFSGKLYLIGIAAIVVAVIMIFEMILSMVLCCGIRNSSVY
Assay: ELISA
reported.metric: relative binding affinity

Provide one value: measured relative binding affinity of 003-D07 (antibody, human IgG4 S228P, lambda, V domains shown, IgG4 S228P) VH: EVQLLESGGGLVQPGGSLRLSCAASGFTFSSNYMSWVRQAPGKGLEWVSYISSSSTYTDYADSVKGRFTISRDNSKNTLYLQMNSLRAEDTAVYYCARYSYDRDNFDYWGQGTLVTVSS VL: QSVLTQPFSASGTPGQRVTISCTGSTSNIGAGYDTHWYQHLPGTAPKLLIYGNSNRPSGVPDRFSGSKSGTSASLAISGLRSEDEADYYCQSYDTNLSVWVFGGGTKLTVLG
< 20%

State its relative binding affinity for this binder: 002-A07 S115G (antibody, human IgG4 S228P, lambda, V domains shown, IgG4 S228P; glycosylation site mutant of 002-A07 VL) VH: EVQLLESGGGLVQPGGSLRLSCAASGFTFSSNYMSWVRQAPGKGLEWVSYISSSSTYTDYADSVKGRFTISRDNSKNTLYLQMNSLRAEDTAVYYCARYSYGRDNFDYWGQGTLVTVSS VL: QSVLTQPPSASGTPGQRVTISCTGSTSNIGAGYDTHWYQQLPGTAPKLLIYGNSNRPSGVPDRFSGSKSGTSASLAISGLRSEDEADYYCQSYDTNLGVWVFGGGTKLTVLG
< 20%

Using the record for 003-A11 (antibody, human IgG4 S228P, lambda, V domains shown, IgG4 S228P) VH: EVQLLESGGGLVQPGGSLRLSCAASGFTFGSNYMSWVRQAPGKGLEWVSYISSSSTYTDYADSVKGRFTISRDNSKNTLYLQMNSLRAEDTAVYYCARYSYGRDNFDYWGQGTLVTVSS VL: QSVLTQPPSASGTPGQRVTISCTGSTSNIGAGYDTHWYQQLPGTAPKLLIYGNSNRPSGVPDRFSGSKSGTSASLAISGLRSEDEADYYCQSYDTNLSGWVFGGGTKLTVLG , state its measured relative binding affinity.
< 20%
